- system under test: Neuronal acetylcholine receptor; alpha3/beta4 (Homo sapiens, UniProt P30926+P32297)
- Sequence (P30926 whole entry): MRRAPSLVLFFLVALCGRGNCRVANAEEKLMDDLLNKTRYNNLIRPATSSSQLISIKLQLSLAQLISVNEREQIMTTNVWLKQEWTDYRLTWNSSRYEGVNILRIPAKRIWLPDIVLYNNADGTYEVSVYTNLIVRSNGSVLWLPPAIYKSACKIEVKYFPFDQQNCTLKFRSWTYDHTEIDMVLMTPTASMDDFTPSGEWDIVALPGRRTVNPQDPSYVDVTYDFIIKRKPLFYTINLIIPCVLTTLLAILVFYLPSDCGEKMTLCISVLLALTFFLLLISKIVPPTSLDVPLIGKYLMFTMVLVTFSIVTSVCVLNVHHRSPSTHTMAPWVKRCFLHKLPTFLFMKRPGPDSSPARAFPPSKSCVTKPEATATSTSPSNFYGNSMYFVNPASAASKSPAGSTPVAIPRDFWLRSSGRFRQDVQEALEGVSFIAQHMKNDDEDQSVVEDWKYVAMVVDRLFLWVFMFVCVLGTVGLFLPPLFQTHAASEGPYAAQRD
- Sequence (P32297 whole entry): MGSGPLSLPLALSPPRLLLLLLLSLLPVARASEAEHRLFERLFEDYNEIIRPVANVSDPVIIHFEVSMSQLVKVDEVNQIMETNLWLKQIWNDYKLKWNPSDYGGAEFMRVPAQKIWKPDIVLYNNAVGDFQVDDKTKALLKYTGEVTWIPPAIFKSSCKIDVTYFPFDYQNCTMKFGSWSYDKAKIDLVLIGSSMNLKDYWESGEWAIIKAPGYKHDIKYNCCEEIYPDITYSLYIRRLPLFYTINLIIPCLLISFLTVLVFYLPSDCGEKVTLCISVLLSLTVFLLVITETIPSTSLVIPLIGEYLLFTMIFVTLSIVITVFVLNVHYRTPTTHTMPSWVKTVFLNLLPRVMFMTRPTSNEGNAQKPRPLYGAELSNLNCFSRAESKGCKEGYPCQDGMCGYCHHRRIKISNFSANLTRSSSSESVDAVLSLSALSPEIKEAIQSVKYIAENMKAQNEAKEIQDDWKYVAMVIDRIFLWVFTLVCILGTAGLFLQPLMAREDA
- method: Effect on alpha3-beta4 neuronal nicotinic acetylcholine receptor-stimulated adrenal catecholamine secretion
- Type: functional

| compound | IC50 [nM] |
| --- | --- |
| CCN1C[C@]2(COC(=O)c3ccccc3N3C(=O)C[C@H](C)C3=O)CC[C@H](OC)[C@@]34[C@@H]5C[C@H]6[C@H](OC)[C@@H]5[C@](O)(C[C@@H]6OC)[C@](O)([C@@H](OC)[C@H]23)[C@@H]14 | 2600 |
| O=C(OCC1CCCN(CCCc2ccccc2)C1)c1ccccc1N1C(=O)CC(Cc2ccccc2)C1=O (stereo not drawn) | 1300 |
| O=C(OCC1CCCN(CCCc2ccccc2)C1)c1ccc(-c2ccccc2)cc1 (stereo not drawn) | 3000 |
| CCC1CC(=O)N(c2ccccc2C(=O)OCC2CCCN(CCCc3ccccc3)C2)C1=O (stereo not drawn) | 4500 |
| CC1C(=O)N(c2ccccc2C(=O)OCC2CCCN(CCCc3ccccc3)C2)C(=O)C1C (stereo not drawn) | 6000 |
| CC1(C)CC(=O)N(c2ccccc2C(=O)OCC2CCCN(CCCc3ccccc3)C2)C1=O (stereo not drawn) | 7500 |
| CC(C)C1CC(=O)N(c2ccccc2C(=O)OCC2CCCN(CCCc3ccccc3)C2)C1=O (stereo not drawn) | 2500 |
| CCCCCCCCC1CC(=O)N(c2ccccc2C(=O)OCC2CCCN(CCCc3ccccc3)C2)C1=O (stereo not drawn) | 1300 |

Source of measurements: ChEMBL document CHEMBL1146803
